targetEntity: M-phase inducer phosphatase 1 (Homo sapiens)
Sequence (P30304 whole entry): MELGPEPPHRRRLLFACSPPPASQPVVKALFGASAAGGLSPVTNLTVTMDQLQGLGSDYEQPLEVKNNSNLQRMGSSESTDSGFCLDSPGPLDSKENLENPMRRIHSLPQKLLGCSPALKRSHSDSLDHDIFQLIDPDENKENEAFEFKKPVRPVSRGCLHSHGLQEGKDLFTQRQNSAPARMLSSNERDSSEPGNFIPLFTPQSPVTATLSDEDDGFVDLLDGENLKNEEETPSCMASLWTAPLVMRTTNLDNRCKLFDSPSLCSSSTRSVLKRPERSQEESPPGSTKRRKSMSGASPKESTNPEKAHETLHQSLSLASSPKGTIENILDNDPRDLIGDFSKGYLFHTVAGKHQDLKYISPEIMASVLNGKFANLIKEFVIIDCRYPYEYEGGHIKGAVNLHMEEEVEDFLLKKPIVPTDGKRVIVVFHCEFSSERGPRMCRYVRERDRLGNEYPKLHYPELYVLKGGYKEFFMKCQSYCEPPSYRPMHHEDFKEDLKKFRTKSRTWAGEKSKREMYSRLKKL
experimentalProtocol: Inhibition of Cdc25A (unknown origin) phosphatase activity assessed as fluorescence by BMG plate reader in the absence of detergent
pIC50: −log10 of the molar value.
reportedProperty: pIC50

[Q] I'm curious: which pIC50 was measured for "O=C(Nc1cccc(-c2csc(-c3ccccc3)n2)c1)c1ccco1" tested on M-phase inducer phosphatase 1 (Homo sapiens)?
[A] 4.75

[Q] Quick one: "COc1ccc(-c2csc(-c3cccc(NC(=O)C4CC4)c3)n2)cc1"
[A] 4.99

[Q] Quick one: COc1ccc(-c2nc(-c3cc(C)n(CC4CCCO4)c3C)cs2)cc1 (centres undefined)
[A] 5.19

[Q] Quick one: "COc1ccccc1-c1nc(-c2ccc3c(c2)CCN3S(C)(=O)=O)cs1"
[A] 5.40

[Q] Quick one: "CCOc1ccc(-c2nc(-c3ccc4c(c3)CC(=O)N4C)cs2)cc1"
[A] 5.02

a: Cc1cccc(-c2nc(-c3ccc4c(c3)CCN4S(C)(=O)=O)cs2)c1
b: CCOc1ccc(-c2nc(-c3ccc4ccccc4c3)cs2)cc1
[Q] Which of these two has the smaller recorded pIC50: a or b ? Answer by stating the label of the chosen item.
[A] b

1: CCOc1ccc(-c2nc(-c3ccc4[nH]c(=O)[nH]c4c3)cs2)cc1
2: COc1ccc(-c2nc(-c3ccc4c(c3)CCN4S(C)(=O)=O)cs2)cc1
[Q] Which of these two has the smaller recorded pIC50: 1 or 2 ? Answer by stating the label of the chosen item.
[A] 2

###

targetEntity: M-phase inducer phosphatase 3 (Homo sapiens)
experimentalProtocol: Inhibition of Cdc25C (unknown origin) phosphatase activity assessed as fluorescence by BMG plate reader in the absence of detergent
reportedProperty: IC50 (µM)

Recorded results for 2 molecules are shown here.
[Q] What does the data say about its IC50? Entry: "COc1ccc(-c2nc(-c3ccc4c(c3)CCN4S(C)(=O)=O)cs2)cc1"
[A] 18

[Q] Quick one: "Cc1cccc(-c2nc(-c3ccc4c(c3)CCN4S(C)(=O)=O)cs2)c1"
[A] 24.3

A: COc1ccc(-c2nc(-c3cc(C)n(CC4CCCO4)c3C)cs2)cc1 (stereo not given)
B: COc1ccc(-c2csc(-c3cccc(NC(=O)C4CC4)c3)n2)cc1
[Q] Which of these two has the smaller recorded IC50: A or B ? Answer by stating the label of the chosen item.
[A] B
(B: 16.8 µM, A: 24.7 µM)

###

targetEntity: M-phase inducer phosphatase 3 (Homo sapiens, UniProt P30307)
Sequence (P30307 whole entry): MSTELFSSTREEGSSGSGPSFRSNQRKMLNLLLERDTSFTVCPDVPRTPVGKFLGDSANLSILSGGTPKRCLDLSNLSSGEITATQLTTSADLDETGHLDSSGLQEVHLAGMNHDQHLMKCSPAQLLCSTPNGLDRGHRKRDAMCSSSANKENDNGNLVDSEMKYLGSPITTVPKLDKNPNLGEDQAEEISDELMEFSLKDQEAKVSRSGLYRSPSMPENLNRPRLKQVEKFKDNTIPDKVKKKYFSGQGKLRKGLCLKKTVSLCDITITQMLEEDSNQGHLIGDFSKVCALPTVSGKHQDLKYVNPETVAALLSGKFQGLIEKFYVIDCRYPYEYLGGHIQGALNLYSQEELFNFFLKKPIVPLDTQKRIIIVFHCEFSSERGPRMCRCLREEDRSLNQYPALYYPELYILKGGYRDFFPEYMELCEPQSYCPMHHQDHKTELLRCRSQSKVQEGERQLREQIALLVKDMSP
experimentalProtocol: Inhibition of Cdc25C (unknown origin) phosphatase activity assessed as fluorescence by BMG plate reader in the presence of 0.005% Tween-20
reportedProperty: IC50 (µM)

Recorded results for 4 molecules are shown here.
[Q] What does the data say about its IC50? Entry: "O=c1[nH]c2cc(S(=O)(=O)Nc3cccc(-c4csc(-c5ccccc5)n4)c3)ccc2o1"
[A] 44.4

[Q] Quick one: "COc1ccccc1-c1nc(-c2ccc3c(c2)CCN3S(C)(=O)=O)cs1"
[A] 42.6

[Q] Quick one: "O=C(Nc1nc(-c2ccc(F)cc2)cs1)c1cnccn1"
[A] 40

[Q] Quick one: "O=C(Nc1cccc(-c2csc(-c3ccccc3)n2)c1)c1cccc(=O)[nH]1"
[A] 8.6

a: O=C(/C=C/c1ccc2c(c1)OCO2)Nc1nc(-c2ccc(F)cc2F)cs1
b: CCOc1ccc(-c2nc(-c3ccc4c(c3)CC(=O)N4C)cs2)cc1
c: O=C1C(=O)c2c(C(=O)c3ccccc3)coc2-c2ccccc21
d: CCOc1ccc(-c2nc(-c3ccc4ccccc4c3)cs2)cc1
[Q] Rank by IC50 (largest to smallest). Provide the labels, sequenced as the question asks.
[A] d, b, a, c

1: N#Cc1ccc(-c2csc(-c3ccc(-c4csnn4)cc3)n2)cc1
2: CCOc1ccc(-c2nc(-c3ccc4[nH]c(=O)[nH]c4c3)cs2)cc1
[Q] Which of these two has the smaller recorded IC50: 1 or 2 ? Answer by stating the label of the chosen item.
[A] 1

1: O=C(CCC(=O)NC1CCCC1)Nc1nc(-c2cc3ccccc3oc2=O)cs1
2: COc1ccc(-c2nc(-c3ccc4c(c3)CCN4S(C)(=O)=O)cs2)cc1
[Q] When their IC50 values are compared, which is larger, 1 or 2 ? Answer by stating the label of the chosen item.
[A] 2
(2: 42.5 µM, 1: 9.4 µM)

a: O=S(=O)(Cc1ccco1)Cc1nc(-c2ccc(-c3ccccc3)cc2)cs1
b: Cc1cccc(-c2nc(-c3ccc4c(c3)CCN4S(C)(=O)=O)cs2)c1
[Q] When their IC50 values are compared, which is larger, a or b ? Answer by stating the label of the chosen item.
[A] b

a: O=C(CCC(=O)Nc1nc(-c2cc3ccccc3oc2=O)cs1)NCc1ccc2c(c1)OCO2
b: COc1ccc(-c2csc(-c3cccc(NC(=O)C4CC4)c3)n2)cc1
[Q] When their IC50 values are compared, which is larger, a or b ? Answer by stating the label of the chosen item.
[A] b
